METHOD: Rat pharmacokinetic study of DZ2002
Type: in vivo, Sprague-Dawley rats
PARTICULARS: female, Sprague-Dawley, rat, blood, po, 10 mg/kg
MEASURE: MRT (h)
Give a bare numeral; the unit h is implied.

COMPOUND: Nc1ncnc2c1ncn2CCC(O)C(=O)O (centres unmarked)
UNIT_ANNOTATION: h
MEAS_VALUE: 1.63

// moving on: another record for MRT
Query :: Item COC(=O)[C@@H](O)CCn1cnc2c(N)ncnc21 has what recorded MRT?
Result :: 0.74

* * *

METHOD: Rat pharmacokinetic study of DZ2002
Assay type: in vivo, Sprague-Dawley rats
PARTICULARS: female, Sprague-Dawley, rat, blood, po, 10 mg/kg
MEASURE: Cmax
Param answer (str): number followed by unit.

COMPOUND: COC(=O)[C@@H](O)CCn1cnc2c(N)ncnc21 [DZ2002]
Cmax: 2.13 µM

Query :: Fill in the blank: the reported Cmax of Nc1ncnc2c1ncn2CCC(O)C(=O)O (centres unmarked) [DZA] is ____.
Result :: 7.23 µM
